The values you see were collected from patent US20200338203A1.

system: T1, Human EphA2 (Ecto) (Human, UniProt P29317 24-537)
T1 construct: extracellular domain
T1 sequence (P29317 24-537): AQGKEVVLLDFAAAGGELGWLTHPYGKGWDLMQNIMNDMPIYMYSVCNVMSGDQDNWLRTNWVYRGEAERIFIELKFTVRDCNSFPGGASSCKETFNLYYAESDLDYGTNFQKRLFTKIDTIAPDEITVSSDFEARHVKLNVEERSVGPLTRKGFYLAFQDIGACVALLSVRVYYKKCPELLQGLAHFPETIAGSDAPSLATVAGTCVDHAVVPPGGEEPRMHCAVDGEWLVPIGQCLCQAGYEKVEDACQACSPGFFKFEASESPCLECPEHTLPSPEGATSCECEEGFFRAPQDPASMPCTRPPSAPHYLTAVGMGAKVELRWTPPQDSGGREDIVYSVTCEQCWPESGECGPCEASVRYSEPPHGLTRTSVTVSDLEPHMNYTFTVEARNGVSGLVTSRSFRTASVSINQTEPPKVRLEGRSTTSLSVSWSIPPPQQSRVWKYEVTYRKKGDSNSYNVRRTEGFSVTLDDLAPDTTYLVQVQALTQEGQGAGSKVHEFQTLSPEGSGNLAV
assayInfo: FP competition; competitor Compound 18
Numbered stars: 1 amine (or outer) side, 2 acyl side, 3 side chain; on linkers, the order of the positions; unused ones are H or OH. Bridge positions count the residues as written; N and C are the ends. Square brackets hold non-standard residues; d marks the D form. Ends that are not written are not given here. 1Nal = N[C@@H](Cc1cccc2ccccc12)C(=O)O; TBMB = c1c(C[*:1])cc(C[*:3])cc1C[*:2]; Gly(cPent) = N[C@H](C(=O)O)C1CCCC1; hArg = N=C(N)NCCCC[C@H](N)C(=O)O; Tle = CC(C)(C)[C@H](N)C(=O)O; Aib = CC(C)(N)C(=O)O; βAla = NCCC(=O)O; Sar = CNCC(=O)O
assayReadout: pKi
Entry type: numeric. Quantity: pKi, the -log10 of concentration in molar units.

Example cases with answers are listed next.
Quick one: pKi of {Ac-βAla}-[Sar][Sar][Sar][Sar][Sar][Sar][Sar][Sar][Sar][Sar]H[dD][Gly(cPent)]PCP[1Nal]G[Aib]F[1Nal]CP[Tle]N[hArg]P[dD]C (linker 15-22-29 via TBMB) [Compound 277] ? 9.28

What about [βAla][Sar][Sar][Sar][Sar][Sar][Sar][Sar][Sar][Sar][Sar]H[dD]VPCP[1Nal]G[Aib][hArg][1Nal]CP[Tle]NR[Aib][dD]C (linker 16-23-30 via TBMB) [Compound 250] ? 8.83

What about {Ac-βAla}-[Sar][Sar][Sar][Sar][Sar][Sar][Sar][Sar][Sar][Sar]H[dD]VPC[Aib][1Nal]G[Aib]F[1Nal]CP[Tle]N[hArg]P[dD]C (linker 15-22-29 via TBMB) [Compound 237] ? 8.62

Continuing:
Quick one: pKi of Ac-[Sar][Sar]A[dD]VTCP[1Nal]G[Aib]F[1Nal]CP[Tle]N[hArg]PGC (linker 7-14-21 via TBMB) [Compound 182] ? 8.94

What about Ac-[Sar][Sar]A[dH]DVPCP[1Nal]G[Aib]F[1Nal]CP[Tle]N[hArg]PGC (linker 8-15-22 via TBMB) [Compound 231] ? 8.71

What about [βAla][Sar][Sar][Sar][Sar][Sar][Sar][Sar][Sar][Sar][Sar]H[dD]VPC[Aib][1Nal]G[Aib]F[1Nal]CP[Tle]N[hArg][Aib][dD]C (linker 16-23-30 via TBMB) [Compound 238] ? 8.55

What about [βAla][Sar][Sar][Sar][Sar][Sar][Sar][Sar][Sar][Sar][Sar]H[dD]VPC[Aib][1Nal]G[Aib]F[1Nal]CP[Tle]N[hArg]PGC (linker 16-23-30 via TBMB) [Compound 235] ? 8.59

What about [βAla][Sar][Sar][Sar][Sar][Sar][Sar][Sar][Sar][Sar][Sar]H[dD]VPCP[1Nal]G[Aib]F[1Nal]CP[Tle]N[hArg][Aib][dD]C (linker 16-23-30 via TBMB) [Compound 259] ? 9.04

What about [βAla][Sar][Sar][Sar][Sar][Sar][Sar][Sar][Sar][Sar][Sar]H[dD]VPCP[1Nal]G[Aib][hArg][1Nal]CP[Tle]N[hArg]P[dD]C (linker 16-23-30 via TBMB) [Compound 251] ? 8.71

What about Ac-[Sar][Sar]A[dD]VTCP[1Nal]G[Aib]F[1Nal]CP[Tle]N[hArg]P[dD]C (linker 7-14-21 via TBMB) [Compound 184] ? 8.92

What about Ac-[Sar][Sar]H[dD]VTCP[1Nal]G[Aib]F[1Nal]CP[Tle]NR[Aib]GC (linker 7-14-21 via TBMB) [Compound 285] ? 8.92

What about [βAla][Sar][Sar][Sar][Sar][Sar][Sar][Sar][Sar][Sar][Sar]H[dD]VPC[Aib][1Nal]GP[hArg][1Nal]CP[Tle]N[hArg]P[dD]C (linker 16-23-30 via TBMB) [Compound 244] ? 8.55

What about [βAla][Sar][Sar][Sar][Sar][Sar][Sar][Sar][Sar][Sar][Sar]H[dD]VPCP[1Nal]G[Aib]F[1Nal]CP[Tle]N[hArg]PGC (linker 16-23-30 via TBMB) [Compound 257] ? 8.97

What about [βAla][Sar][Sar][Sar][Sar][Sar][Sar][Sar][Sar][Sar][Sar]H[dD]VPCP[1Nal]G[Aib]FWCP[Tle]N[hArg]P[dD]C (linker 16-23-30 via TBMB) [Compound 265] ? 8.81

What about Ac-[Sar][Sar]A[dD]VTCP[1Nal]G[Aib]F[1Nal]CP[Tle]NR[Aib]GC (linker 7-14-21 via TBMB) [Compound 183] ? 8.99
